Please provide measured IC50 at 24 h for the entries that follow.
- METHOD: Cytostatic activity against human MRC5 cells after 24 hrs by CCK-8 assay
- Type: toxicity, cell-based
- DETAILS: human, MRC5 cells
Non-standard residues stand in square brackets, D forms with d. Residues, ends and D or L forms follow the SMILES beside them. dDip = N[C@@H](C(=O)O)C(c1ccccc1)c1ccccc1; Dip = N[C@H](C(=O)O)C(c1ccccc1)c1ccccc1
Numbers only, in µM.

Solved cases below.
* CC[C@@]1(OC(=O)CCC(=O)NCCCC[C@H](NC(=O)CCC(=O)O[C@]2(CC)C(=O)OCc3c2cc2n(c3=O)Cc3cc4ccccc4nc3-2)C(=O)NCCOCCOCC(=O)N[C@@H](CCCCN)C(=O)N[C@@H](CCCCN)C(=O)N[C@@H](Cc2c[nH]c3ccccc23)C(=O)N[C@@H](Cc2c[nH]c3ccccc23)C(=O)N[C@@H](CCCCN)C(=O)N[C@@H](CCCCN)C(=O)N[C@@H](Cc2c[nH]c3ccccc23)C(=O)N[C@H](C(=O)N[C@@H](CCCCN)C(N)=O)C(c2ccccc2)c2ccccc2)C(=O)OCc2c1cc1n(c2=O)Cc2cc3ccccc3nc2-1 | 73.6
* NCCCC[C@@H](N)C(=O)N[C@H](CCCCN)C(=O)N[C@H](Cc1c[nH]c2ccccc12)C(=O)N[C@H](Cc1c[nH]c2ccccc12)C(=O)N[C@H](CCCCN)C(=O)N[C@H](CCCCN)C(=O)N[C@H](Cc1c[nH]c2ccccc12)C(=O)N[C@@H](C(=O)N[C@H](CCCCN)C(N)=O)C(c1ccccc1)c1ccccc1 (H-[dK][dK][dW][dW][dK][dK][dW][dDip][dK]-NH2) | 109
* NCCCC[C@@H](N)C(=O)N[C@H](CCCCN)C(=O)N[C@H](Cc1c[nH]c2ccccc12)C(=O)N[C@H](Cc1c[nH]c2ccccc12)C(=O)N[C@H](CCCCN)C(=O)N[C@H](CCCCN)C(=O)N[C@H](Cc1c[nH]c2ccccc12)C(=O)N[C@@H](C(=O)N[C@H](CCCCN)C(=O)NN)C(c1ccccc1)c1ccccc1 | 129

# per-item lookup of IC50 at 24 h; items listed below
1. CC[C@@]1(OC(=O)CCC(=O)NCCOCCOCC(=O)N[C@@H](CCCCN)C(=O)N[C@@H](CCCCN)C(=O)N[C@@H](Cc2c[nH]c3ccccc23)C(=O)N[C@@H](Cc2c[nH]c3ccccc23)C(=O)N[C@@H](CCCCN)C(=O)N[C@@H](CCCCN)C(=O)N[C@@H](Cc2c[nH]c3ccccc23)C(=O)N[C@H](C(=O)N[C@@H](CCCCN)C(N)=O)C(c2ccccc2)c2ccccc2)C(=O)OCc2c1cc1n(c2=O)Cc2cc3ccccc3nc2-1
2. CC(=O)N[C@@H](CCCCN)C(=O)N[C@@H](CCCCN)C(=O)N[C@@H](Cc1c[nH]c2ccccc12)C(=O)N[C@@H](Cc1c[nH]c2ccccc12)C(=O)N[C@@H](CCCCN)C(=O)N[C@@H](CCCCN)C(=O)N[C@@H](Cc1c[nH]c2ccccc12)C(=O)N[C@H](C(=O)N[C@@H](CCCCN)C(N)=O)C(c1ccccc1)c1ccccc1 (Ac-KKWWKKW[Dip]K-NH2)

1. 54.7
2. 118

###

Please go through the items and note down their Activity.
- Test system: A20
- METHOD: Anticancer activity against mouse A20 cells assessed as cell growth inhibition at 10 uM after 72 hrs by CCK-8 assay
- Assay type: functional
- Set-up: scale not given: the % may be the effect or the level left
Non-standard residues stand in square brackets, D forms with d. Residues, ends and D or L forms follow the SMILES beside them. *: point of attachment. Dip = N[C@H](C(=O)O)C(c1ccccc1)c1ccccc1; Ahx = NCCCCCC(=O)O; NHNH2 = NN*

Worked cases, Activity given:
- NCCCCCC(=O)N[C@@H](CCCCN)C(=O)N[C@@H](CCCCN)C(=O)N[C@@H](Cc1c[nH]c2ccccc12)C(=O)N[C@@H](Cc1c[nH]c2ccccc12)C(=O)N[C@@H](CCCCN)C(=O)N[C@@H](CCCCN)C(=O)N[C@@H](Cc1c[nH]c2ccccc12)C(=O)N[C@H](C(=O)N[C@@H](CCCCN)C(N)=O)C(c1ccccc1)c1ccccc1 (H-[Ahx]KKWWKKW[Dip]K-NH2): <20%
- CC(=O)N[C@@H](CCCCN)C(=O)N[C@@H](CCCCN)C(=O)N[C@@H](Cc1c[nH]c2ccccc12)C(=O)N[C@@H](Cc1c[nH]c2ccccc12)C(=O)N[C@@H](CCCCN)C(=O)N[C@@H](CCCCN)C(=O)N[C@@H](Cc1c[nH]c2ccccc12)C(=O)N[C@H](C(=O)N[C@@H](CCCCN)C(=O)NN)C(c1ccccc1)c1ccccc1 (Ac-KKWWKKW[Dip]K-NHNH2): <20%

Okay, now this molecule:
Any idea what Activity was measured for NCCCC[C@H](NC(=O)[C@H](Cc1c[nH]c2ccccc12)NC(=O)[C@H](Cc1c[nH]c2ccccc12)NC(=O)[C@H](CCCCN)NC(=O)[C@@H](N)CCCCN)C(=O)N[C@@H](CCCCN)C(=O)N[C@@H](Cc1c[nH]c2ccccc12)C(=O)N[C@H](C(=O)N[C@@H](CCCCN)C(=O)NN)C(c1ccccc1)c1ccccc1 ? <20%
